Target: human glucagon receptor (human, UniProt P47871 26-477)
Sequence (P47871 26-477): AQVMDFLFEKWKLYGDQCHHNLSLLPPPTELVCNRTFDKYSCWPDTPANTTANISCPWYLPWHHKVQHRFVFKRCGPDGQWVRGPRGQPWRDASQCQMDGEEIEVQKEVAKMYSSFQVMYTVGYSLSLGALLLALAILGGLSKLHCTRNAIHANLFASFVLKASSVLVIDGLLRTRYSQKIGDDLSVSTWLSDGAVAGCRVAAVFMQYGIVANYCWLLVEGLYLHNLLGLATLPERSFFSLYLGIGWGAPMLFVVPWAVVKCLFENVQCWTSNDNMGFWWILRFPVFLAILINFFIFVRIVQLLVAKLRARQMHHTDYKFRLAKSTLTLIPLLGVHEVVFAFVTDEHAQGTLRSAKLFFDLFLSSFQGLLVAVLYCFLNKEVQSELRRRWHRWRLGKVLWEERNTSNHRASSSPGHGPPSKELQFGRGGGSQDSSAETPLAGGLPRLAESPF
Assay: cell-based or functional assay
Where no end group is shown, it is not given here. [ ]: non-standard residue; d: D form. (mPEG)2 40 kDa = C3 = Cys(mPEG)240kDa, branched (mPEG)2, 40 kDa; Aib = CC(C)(N)C(=O)O
Label satisfied when GCGR EC50 is strictly below 600 nM; at or above that, label not satisfied.

HSQGTFTSDYSKYLDSRRAQDFVQWLMNTKRNRNNIAC (D-Ser at position 2; C1 = Cys(mPEG)5kDa at position 38; C-terminal amide) [OXM33] :: satisfied

Lookup: Decide: GCGR EC50 of HXQGTFTSDYSKYLDSRRAQDFVQWLMNTKRNRNNIAC (Aib at position 2; C3 = Cys(mPEG)240kDa (branched (mPEG)2, 40 kDa) at position 38; C-terminal amide) [OXM69] strictly below 600 nM?
Found: not satisfied

Lookup: Is 600 nM strictly greater than the binder's reported GCGR EC50? binder: H[Aib]QGTFTSDYSKYLDSRRAQC((mPEG)2 40 kDa)FVQWLMNTKRNRNNIA-NH2 [OXM105]
Found: not satisfied
